- target_or_test_system: Fab E10 (rabbit)
- experiment_summary: SPR; Biacore T200; each Fab immobilised on a CM5 chip by amine coupling; peptides injected at increasing concentrations; running buffer PBS with 0.005% Tween 20; global fitting of the curves, or steady-state analysis where kinetic parameters could not be determined (fast dissociation, low affinity)
Where no end group is shown, it is not given here. Me3 = trimethyl-lysine
measurement_name: Kd (µM)

Request: What does the record list as Kd for NPIFEKFGKGGTYP [MAP3K2 peptide, …] ?
Response: 36

Request: Next: NPIFEKFGK(Me3)GGTYP [Methylated MAP3K2 peptide, …(me3)GGTYP]
Response: 39
